Values from PubChem BioAssay AID2462

The reader will find reported caspase activation values listed item by item below.
experiment: caspase 3/7 activation in MEF A1-2A-BIM cells, primary screen, A1 inhibitor project, cell-based, luminescence, HTS (AID 2462); conditions: Caspase-Glo 3/7 luminescence, 3 h, hits give high values, percent of clofoctol response, vehicle zero, concentration not given here
The campaign covered roughly 330,000 compounds. About 220 (0.067%) were called active. Only a selection was taken, and actives are over-represented in it overall.
MEASUREMENT_LABEL: caspase activation (%)

1. CC(C)(C)OC(=O)N[C@H](C(=O)OC(C)(C)C)c1ccc(Br)cc1 : -0.98
2. CN(Cc1c(F)cccc1Cl)C(=O)CNC(=O)c1ccc2c(c1)OCO2 : -0.444
3. COc1ccc(-c2cnc(SCCNC(=O)c3ccc4c(c3)OCO4)[nH]2)cc1 : 1.35
4. Cc1ccc(CNC(=O)CCS(=O)(=O)c2ccc3c(c2)CC(C)N3C(=O)C2CC2)o1 (configuration not stated) : 3.53
5. OCCC1CN(Cc2cnc(-c3ccccc3)s2)CCN1CCc1ccccc1 (configuration not stated) : 0.493
6. CC(C)(O)C#Cc1ncc(C(F)(F)F)cc1Cl : 0.0403
7. COc1cc2c(cc1NC(=O)COC(=O)/C=C/c1ccccc1)oc1ccccc12 : 8.52
8. COc1ccc(OC)c(/C=C/C(=O)c2ccc3c(c2)OCO3)c1 : -0.508
9. CCOc1ccc(Br)cc1S(=O)(=O)Nc1ccc(S(=O)(=O)Nc2cc(C)on2)cc1 : 1.21
10. CC1=C(C(N)=O)C(c2sccc2C)n2nnnc2N1 (configuration not stated) : -0.851
11. NC(=O)COC(=O)c1cc(S(=O)(=O)N2CCN(c3ccccc3)CC2)ccc1Cl : 0.691
12. COc1cc2c(cc1NC(=O)CN1CCN(S(=O)(=O)c3ccc(F)cc3)CC1)oc1ccccc12 : -0.105
13. O=c1cc(CN2CCN(c3cccc(Cl)c3)CC2)c2cc3c(cc2o1)CCCC3 : 0.443
14. CC1(C)COC(c2cccn2Cc2ccccc2Cl)=N1 : -0.0448
15. O=C(CCc1nnc2ccc(NCc3ccccc3Cl)nn12)NCC1CCN(C2CCCC2)C1 (configuration not stated) : -0.323
16. CCC1(C(=O)c2ccccc2)C(c2cccc([N+](=O)[O-])c2)C1(C(=O)OC)C(=O)OC (configuration not stated) : -0.612
17. O=C(NCc1ccccc1)C1CCCN(c2nc3ccsc3c(=O)s2)C1 (configuration not stated) : -0.382
18. O=C(NNC(=O)c1cccc(S(=O)(=O)Nc2ccc(Cl)cc2)c1)c1ccc(=O)[nH]c1 : -1.36
19. O=C(Nc1ccc(Cl)c(Cl)c1)c1ccccc1NC(=O)C1CC=CCC1C(=O)O (configuration not stated) : -2.01
20. O=C1CCCc2nn(-c3ccccc3)nc21 : -0.0976
21. Cc1ccc2cc3cc(C(=O)N4CCCCCC4)oc3nc2c1 : 0.083
22. O=c1c(-c2ccccc2Cl)c[nH]n1-c1ccccc1 : -1.88
